Values compiled from paper PMC8041284.

test system: EGFR (Homo sapiens, UniProt P00533)
Sequence (P00533 25-1210): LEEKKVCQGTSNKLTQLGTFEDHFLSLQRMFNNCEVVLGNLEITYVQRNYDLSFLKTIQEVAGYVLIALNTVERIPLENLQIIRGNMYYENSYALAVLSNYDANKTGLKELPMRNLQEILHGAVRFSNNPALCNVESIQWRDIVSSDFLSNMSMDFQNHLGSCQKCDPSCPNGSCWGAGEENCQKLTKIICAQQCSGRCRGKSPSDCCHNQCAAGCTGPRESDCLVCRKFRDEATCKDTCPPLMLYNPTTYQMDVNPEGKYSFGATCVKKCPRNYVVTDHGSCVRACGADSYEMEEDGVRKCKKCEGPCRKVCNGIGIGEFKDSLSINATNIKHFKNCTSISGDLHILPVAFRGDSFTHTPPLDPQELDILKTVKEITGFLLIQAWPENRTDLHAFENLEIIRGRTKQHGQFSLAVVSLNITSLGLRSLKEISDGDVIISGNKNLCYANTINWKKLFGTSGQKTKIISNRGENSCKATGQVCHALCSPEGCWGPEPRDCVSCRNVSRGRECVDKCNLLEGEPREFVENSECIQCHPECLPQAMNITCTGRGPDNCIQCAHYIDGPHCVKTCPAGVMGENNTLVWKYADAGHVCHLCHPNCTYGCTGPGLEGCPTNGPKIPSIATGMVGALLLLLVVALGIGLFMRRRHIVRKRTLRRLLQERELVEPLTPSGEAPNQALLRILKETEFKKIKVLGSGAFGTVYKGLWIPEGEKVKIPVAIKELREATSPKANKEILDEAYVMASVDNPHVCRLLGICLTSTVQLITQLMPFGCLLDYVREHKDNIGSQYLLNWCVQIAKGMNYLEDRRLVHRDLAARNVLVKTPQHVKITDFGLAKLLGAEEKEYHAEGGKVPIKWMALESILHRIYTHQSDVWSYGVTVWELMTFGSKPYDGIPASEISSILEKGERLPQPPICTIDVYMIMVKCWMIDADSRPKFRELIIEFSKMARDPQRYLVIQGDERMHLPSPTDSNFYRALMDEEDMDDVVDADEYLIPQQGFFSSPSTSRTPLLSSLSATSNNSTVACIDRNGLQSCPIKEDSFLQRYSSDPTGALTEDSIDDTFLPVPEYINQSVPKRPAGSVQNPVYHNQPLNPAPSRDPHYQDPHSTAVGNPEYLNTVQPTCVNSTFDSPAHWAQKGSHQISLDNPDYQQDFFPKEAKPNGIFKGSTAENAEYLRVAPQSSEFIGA
assay notes: In vitro kinase activity assay (Nanosyn)
Type: biochemical
condition details: rounded; 2 h preincubation, 5 μM ATP
The following compounds are shown together with reported IC50 values.

compound | IC50 [nM]
C=C(COC(=O)OC)C(=O)N1CCC[C@@H](n2nc(-c3ccc(Oc4ccccc4)cc3)c3c(N)ncnc32)C1 | 31
C=C(CN1CCCCC1)C(=O)N1CCC[C@@H](n2nc(-c3ccc(Oc4ccccc4)cc3)c3c(N)ncnc32)C1 | 7
C=C(CNCc1ccccc1)C(=O)N1CCC[C@@H](n2nc(-c3ccc(Oc4ccccc4)cc3)c3c(N)ncnc32)C1 | 3
C=C(COC(C)=O)C(=O)N1CCC[C@@H](n2nc(-c3ccc(Oc4ccccc4)cc3)c3c(N)ncnc32)C1 | 28
